- ASSAY PROTOCOL: Stability of JAK3 covalent inhibitors in human whole blood
- Assay type: in vitro ADME
- RECORDED CONDITIONS: both sexes, whole blood, 37° C., read-out: Human blood stability t1/2
OBSERVED PROPERTY: half-life at 1 μM

Consider the worked cases shown below.
C=CC(=O)N1C[C@@H](C)C[C@H](Nc2ncnc3[nH]ccc23)C1 [Example 75] | > 6 h
C=CC(=O)N1CCC[C@@H](Nc2ncnc3[nH]cc(C#N)c23)C1 [Example 45] | > 6 h

Any idea what its half-life at 1 μM is? The molecule is C=CC(=O)N1C[C@@H](C#N)C[C@@H](Nc2ncnc3[nH]ccc23)C1 [Example 58] 0.583 h

What does the record list as half-life at 1 μM for C=CC(=O)N1C[C@@H]2C(Nc3cnc4[nH]cc(C(=O)NC(C)C)c4n3)[C@@H]2C1 (some centres unmarked) [Example 189] ? > 6 h

Fill blank: measured half-life at 1 μM of the molecule C=CC(=O)N1CCC(Nc2cnc3[nH]cc(C(=O)NCCC(F)(F)F)c3n2)CC1 [Example 246] is ____. > 6 h

---

- ASSAY PROTOCOL: Stability of JAK3 covalent inhibitors in human whole blood
- Format: in vitro ADME
- RECORDED CONDITIONS: both sexes, whole blood, 37° C., read-out: Human blood stability t1/2
OBSERVED PROPERTY: half-life at 1 μM (h)

Reference set, count: 2
C=CC(=O)N1CC[C@@H](C)[C@H](Nc2ncnc3[nH]ccc23)C1 [Example 112] | 2.37
C=CC(=O)N1CC[C@H](F)[C@@H](Nc2ncnc3[nH]ccc23)C1 [Example 4] | 2.33

1: C=CC(=O)N1C[C@H](C#N)C[C@@H](Nc2ncnc3[nH]ccc23)C1 [Example 6]
2: C=CC(=O)N1CC[C@@H]2OCCN(c3ncnc4[nH]ccc34)[C@@H]2C1 [Example 90]
Two entries are listed, 1 and 2 . Which one carries the higher half-life at 1 μM? I would appreciate it if you answered with the label of your choice. 1

---

- ASSAY PROTOCOL: Stability of JAK3 covalent inhibitors in human whole blood
- Assay type: in vitro ADME
- RECORDED CONDITIONS: both sexes, whole blood, 37° C., read-out: Human blood stability t1/2
OBSERVED PROPERTY: half-life at 1 μM

C=CC(=O)N1CCC(Nc2cnc3[nH]cc(C(=O)NC45CC(C4)C5)c3n2)CC1 | 5.77 h

Fill in: half-life at 1 μM of C=CC(=O)N1C[C@H](Nc2ncnc3[nH]ccc23)C[C@@H](OC)C1 is ___ 4.2 h

---

- TARGET OF ASSAY: JAK3 enzyme (Homo sapiens (Human))
- Sequence (P52333 whole entry, species assumed): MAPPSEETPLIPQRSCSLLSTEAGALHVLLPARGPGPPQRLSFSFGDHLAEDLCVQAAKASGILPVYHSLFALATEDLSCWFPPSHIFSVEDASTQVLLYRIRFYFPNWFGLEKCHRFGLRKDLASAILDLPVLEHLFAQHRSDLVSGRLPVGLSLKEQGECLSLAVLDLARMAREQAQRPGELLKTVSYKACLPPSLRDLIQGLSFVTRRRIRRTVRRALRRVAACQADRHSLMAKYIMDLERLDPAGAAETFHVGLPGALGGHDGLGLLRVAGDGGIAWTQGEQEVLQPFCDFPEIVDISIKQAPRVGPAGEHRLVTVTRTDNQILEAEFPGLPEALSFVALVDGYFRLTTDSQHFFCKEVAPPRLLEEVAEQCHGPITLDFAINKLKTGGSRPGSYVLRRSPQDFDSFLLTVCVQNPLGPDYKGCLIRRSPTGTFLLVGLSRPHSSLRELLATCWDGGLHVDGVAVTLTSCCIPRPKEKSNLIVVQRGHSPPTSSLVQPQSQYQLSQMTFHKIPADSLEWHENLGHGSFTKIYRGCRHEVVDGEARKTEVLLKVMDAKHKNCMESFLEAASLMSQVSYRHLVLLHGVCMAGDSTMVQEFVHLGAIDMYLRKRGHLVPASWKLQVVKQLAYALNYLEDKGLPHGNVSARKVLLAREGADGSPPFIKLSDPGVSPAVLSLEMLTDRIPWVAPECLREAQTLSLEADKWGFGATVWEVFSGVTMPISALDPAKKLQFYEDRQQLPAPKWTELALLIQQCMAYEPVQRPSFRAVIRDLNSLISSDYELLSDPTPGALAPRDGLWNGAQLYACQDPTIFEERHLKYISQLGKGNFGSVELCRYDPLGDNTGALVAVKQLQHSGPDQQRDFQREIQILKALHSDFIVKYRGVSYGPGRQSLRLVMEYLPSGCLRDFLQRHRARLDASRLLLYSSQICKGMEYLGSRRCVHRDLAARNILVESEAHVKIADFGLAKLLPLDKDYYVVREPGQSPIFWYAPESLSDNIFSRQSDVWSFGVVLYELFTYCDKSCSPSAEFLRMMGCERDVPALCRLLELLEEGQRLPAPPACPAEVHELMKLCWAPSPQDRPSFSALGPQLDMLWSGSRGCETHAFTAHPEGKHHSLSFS
- ASSAY PROTOCOL: JAK Caliper enzyme assay at 1 mM ATP
- Type: biochemical
OBSERVED PROPERTY: IC50 (µM)

A: C=CC(=O)N1CC[C@H](O)[C@@H](Nc2ncnc3[nH]ccc23)C1 (racemic)
B: C=CC(=O)N1C[C@@H]2C[C@H]1CN2c1cnc2[nH]cc(C(=O)NC(C)C)c2n1
Of the two listed items, A and B , which carries the larger IC50 figure? Answer = label. A
(A: 8.48 µM, B: 0.0844 µM)

---

- ASSAY PROTOCOL: Stability of JAK3 covalent inhibitors in human whole blood;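 also: parent compound remaining over incubation time quantified by LC-MS/MS as peak area ratio against an internal standard, using pooled K2-EDTA blood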
- Type: in vitro ADME
- RECORDED CONDITIONS: both sexes, whole blood, 37° C., read-out: Human blood stability t1/2
OBSERVED PROPERTY: half-life at 1 μM (h)

C=CC(=O)N1CCC[C@@H](Nc2ncnc3[nH]cc(C)c23)C1 | 4.57
C=CC(=O)N1CCC(Nc2cnc3[nH]cc(C(=O)N[C@@H]4CCC[C@H]4F)c3n2)CC1 | 4.05

1: C=CC(=O)N1CCC(Nc2cnc3[nH]cc(C(=O)N[C@@H](C)CC)c3n2)CC1
2: C=CC(=O)N1CCC(Nc2cnc3[nH]cc(C(=O)NCC4CCCC4)c3n2)CC1
Short answer wanted: higher half-life at 1 μM, 1 or 2 ? Your answer should be the label of the entry you select. 1
(1: 5.75 h, 2: 3.87 h)
